These measurements were taken from a melting point compilation (Tetko et al.; mined from patent text by program, amines drawn as free bases though some values may be those of a salt).

READOUT_KIND: melting point

Using the record for Cc1cc(C(C)C)cc(C)c1CO , report its melting point.
75 to 77 °C

Using the record for O=S(=O)(Nc1ccc2c(OCc3csc(C4COc5ccccc5O4)n3)cccc2c1)C(F)(F)F (centres undefined) , report its melting point.
183 to 185 °C

* * *

Measured melting point accompanies every entry in the list below.

Using the record for Cc1cc(C)c2ncc(N(Cc3cc(C(C)(C)C)c(O)c(C(C)(C)C)c3)C(=O)Nc3ccc(F)cc3F)c(-c3ccccc3Cl)c2c1 , report its melting point.
124 to 126 °C

* * *

Measured melting point accompanies every entry in the list below.

Using the record for CCC(=O)c1cc(Cl)ccc1NS(=O)(=O)C(F)(F)F , report its melting point.
54 to 55 °C

Further cases:
Using the record for C/C(=C\C=O)c1ccc(OCc2nc(-c3ccccc3)oc2C)cc1 , report its melting point.
94 to 95 °C

Using the record for O=c1c2ccccc2n(CCCCN2CCC(OC(c3ccccc3)c3ccccc3)CC2)c(=O)n1CCO , report its melting point.
145 to 150 °C

Using the record for Cc1cccc2c(=O)c(CS(C)(=O)=O)cn(C)c12 , report its melting point.
244 to 246 °C

Using the record for O=C(O)C(O)c1ccc2oc([N+](=O)[O-])c(-c3ccccc3)c2c1 (stereo unspecified) , report its melting point.
158 to 161 °C

Using the record for CCOc1ccc(C(=O)Nc2ccccc2)cc1N(c1ccccc1)C(F)(F)F , report its melting point.
184 to 185 °C

Using the record for CCCC(CO)N1CC(COc2cccc(Cl)c2)OC1=O (stereo unspecified) , report its melting point.
79 to 81 °C

Using the record for O=C(O)CCc1ccc(OCc2ccccc2)cc1 , report its melting point.
123 to 124 °C

Using the record for CC(C)(C)OC(=O)N1CCc2c(n(CCOc3ccccc3)c3cc(Cl)c(Cl)cc23)CC1 , report its melting point.
136 to 138 °C

Using the record for COc1nc(C(F)(F)F)cc(=O)n1-c1cc(OCCON=C(C)C)c(Br)cc1F , report its melting point.
149 to 150 °C

Using the record for O=C(COC(=O)C(O)Cc1ccccc1)Oc1ccccc1 (stereo unspecified) , report its melting point.
98 to 99 °C

Using the record for O=[N+]([O-])c1ccc2c(c1)N(C1CC1)CNS2(=O)=O , report its melting point.
166 to 169 °C
